Provide the recorded Ki for the entries that follow.
target: Human EphA2 (Homo sapiens, UniProt P29317); construct: EphA2 (Ecto); polyHis (C); test: Fluorescence polarisation competition binding assay; details: read-out: Ki, nM ± 95% CI, Human EphA2; competition binding assay; fluorescent peptide Compound 18; TBMB scaffold reference peptides
Sequence (P29317 24-537 limits assumed): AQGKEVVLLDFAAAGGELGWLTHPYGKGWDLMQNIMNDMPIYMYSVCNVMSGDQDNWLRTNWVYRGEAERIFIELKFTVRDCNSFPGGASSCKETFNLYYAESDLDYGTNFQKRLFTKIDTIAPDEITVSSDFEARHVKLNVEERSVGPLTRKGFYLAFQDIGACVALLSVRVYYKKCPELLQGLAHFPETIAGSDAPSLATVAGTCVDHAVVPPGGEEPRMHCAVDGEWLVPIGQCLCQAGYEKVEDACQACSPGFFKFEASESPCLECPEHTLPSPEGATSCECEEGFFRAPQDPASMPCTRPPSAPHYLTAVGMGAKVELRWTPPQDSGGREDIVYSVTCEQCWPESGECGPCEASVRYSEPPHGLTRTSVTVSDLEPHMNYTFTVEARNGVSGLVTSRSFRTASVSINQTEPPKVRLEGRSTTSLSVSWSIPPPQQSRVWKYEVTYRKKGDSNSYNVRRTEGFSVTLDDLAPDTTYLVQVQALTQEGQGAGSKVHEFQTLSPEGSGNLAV
Non-standard residues stand in square brackets, D forms with d. No end group written: not given here.
Give bare numbers, in nM.

substance: ADVHCPWGPFWC[dA]VNRPGCA (cysteine pairing not given here) [Compound 154]
Ki [nM]: 101

Attention now turns to another entry.
-- ask Lab note: Human EphA2 (Homo sapiens, UniProt P29317) assay, enter Ki for ADVHCPWGPFWCPV[dA]RPGCA (cysteine pairing not given here) [Compound 155] here
-- reply 2
